Values compiled from patent US20210315893A1.

# system: human GPCR sphingosine 1-phosphate receptor 2 (Homo sapiens)
# Construct: host or cells: CHO
# Sequence (O95136 whole entry): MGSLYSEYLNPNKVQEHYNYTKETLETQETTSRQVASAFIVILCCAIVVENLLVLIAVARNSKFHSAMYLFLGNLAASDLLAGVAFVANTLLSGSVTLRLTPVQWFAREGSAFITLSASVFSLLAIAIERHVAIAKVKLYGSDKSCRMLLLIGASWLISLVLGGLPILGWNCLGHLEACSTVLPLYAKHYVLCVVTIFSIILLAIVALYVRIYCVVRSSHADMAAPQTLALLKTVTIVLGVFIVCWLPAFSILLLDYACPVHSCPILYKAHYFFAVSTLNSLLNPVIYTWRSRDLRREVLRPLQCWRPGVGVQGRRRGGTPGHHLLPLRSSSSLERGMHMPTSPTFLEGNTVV
# measurement-notes: S1PR2 antagonist Ca2+ flux assay
# Format: cell-based
# assay-setup: antagonist mode, CHO-S1PR2 cells, S1P at EC80, Ca2+ fluorescence; read-out: S1P2 EC50 (nM), S1P2 antagonist EC50
assay-readout: EC50 (nM)

I. O=C(O)Cc1nn(Cc2cn3cc(OCC4CC4)c(Cl)cc3n2)c2cc(F)ccc2c1=O
II. CCOc1cc2[nH]c(Cc3nn(CC(=O)O)c(=O)c4c3CCCC4)nc2cc1Cl
III. O=C(Cn1cc(Cc2nc3cc(OCC(F)F)c(Cl)cc3[nH]2)c2ccccc2c1=O)N1CCOCC1
IV. CC(=O)N1CCCC1Cn1nc(Cc2nc3cc(Cl)c(OC(F)(F)F)cc3[nH]2)c2ccccc2c1=O (stereo not shown)
[ask] Give the descending EC50 ranking for the 4 compounds listed above. Record the ranking as a list of labels in the requested order.
[reply] IV, III, II, I
(IV: 615 nM, III: 19.9 nM, II: 6.23 nM, I: 3.48 nM)
